system: 843782-103-R-J1-PDC complex spheroid viability; test: Anticancer human tumor 843782-103-R-J1-PDC patient-derived lung adenocarcinoma cell line growth inhibition [RAS]; settings: second compound 0.0949 µM; first compound 0.1 µM; active = viability on the fitted dose curve at most 10% of control; inactive = the rest
API: response.call in T (active), F (inactive)

CC(C)NCC(C(=O)N1CCN(c2ncnc3c2C(C)CC3O)CC1)c1ccc(Cl)cc1 (centres undefined) + CCn1c(-c2cccnc2C(C)OC)c2c3cc(ccc31)N1CCOC(CC(NC(=O)C(C(C)C)N(C)C(=O)C3(F)CCN(C(=O)C#CC(C)(C)N(C)C)CC3)C(=O)N3CCCC(N3)C(=O)OCC(C)(C)C2)C1 = F
Cc1nc(N2CCC3(CC2)COC(C)C3N)c(CO)nc1Sc1ccnc(N)c1Cl (centres undefined) + CCn1c(-c2cccnc2C(C)OC)c2c3cc(ccc31)N1CCOC(CC(NC(=O)C(C(C)C)N(C)C(=O)C3(F)CCN(C(=O)C#CC(C)(C)N(C)C)CC3)C(=O)N3CCCC(N3)C(=O)OCC(C)(C)C2)C1 = F
CC(=O)OC12COC1CC(O)C1(C)C(=O)C(O)C3=C(C)C(OC(=O)C(O)C(NC(=O)OC(C)(C)C)c4ccccc4)CC(O)(C(OC(=O)c4ccccc4)C21)C3(C)C (centres undefined) + CCn1c(-c2cc(N3CCN(C)CC3)cnc2C(C)OC)c2c3cc(ccc31)-c1csc(n1)CC(NC(=O)C1CC1C)C(=O)N1CCCC(N1)C(=O)OCC(C)(C)C2 = T

Below: the item to evaluate.
Query string: What is the recorded call for this molecule in the test? CC(C)n1nc(-c2ccc3oc(N)nc3c2)c2c(N)ncnc21 + CCn1c(-c2cc(N3CCN(C)CC3)cnc2C(C)OC)c2c3cc(ccc31)-c1csc(n1)CC(NC(=O)C1CC1C)C(=O)N1CCCC(N1)C(=O)OCC(C)(C)C2
Result string: T

====

system: 843782-103-R-J1-PDC complex spheroid viability; test: Anticancer human tumor 843782-103-R-J1-PDC cell line growth inhibition [RAS]; conditions: second compound 0.00949 µM; first compound 0.0316 µM; active compounds read low;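 also: viability read after seven days of compound exposure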
Assign a class from recorded viability, T/C; defined classes: lower bin: < 20%; middle bin: ≥ 20% and < 60%; upper bin: ≥ 60%

Some solved cases for reference:
CC(C)NCC(C(=O)N1CCN(c2ncnc3c2C(C)CC3O)CC1)c1ccc(Cl)cc1 (centres undefined) + CCn1c(-c2cc(N3CCN(C)CC3)cnc2C(C)OC)c2c3cc(ccc31)-c1csc(n1)CC(NC(=O)C1CC1C)C(=O)N1CCCC(N1)C(=O)OCC(C)(C)C2 = middle bin
C[C@@H](NC(=O)c1ncnc(N)c1Cl)c1ncc(C(=O)Nc2cc(C(F)(F)F)c(Cl)cn2)s1 + CCn1c(-c2cc(N3CCN(C)CC3)cnc2C(C)OC)c2c3cc(ccc31)-c1csc(n1)CC(NC(=O)C1CC1C)C(=O)N1CCCC(N1)C(=O)OCC(C)(C)C2 = middle bin
C=CC(=O)Nc1cc(Nc2nccc(-c3cn(C)c4ccccc34)n2)c(OC)cc1N(C)CCN(C)C + CCn1c(-c2cc(N3CCN(C)CC3)cnc2C(C)OC)c2c3cc(ccc31)-c1csc(n1)CC(NC(=O)C1CC1C)C(=O)N1CCCC(N1)C(=O)OCC(C)(C)C2 = middle bin

Query string: # classify by viability, T/C band: CCN1CCN(Cc2ccc(Nc3ncc(F)c(-c4cc(F)c5nc(C)n(C(C)C)c5c4)n3)nc2)CC1 + CCn1c(-c2cccnc2C(C)OC)c2c3cc(ccc31)N1CCOC(CC(NC(=O)C(C(C)C)N(C)C(=O)C3(F)CCN(C(=O)C#CC(C)(C)N(C)C)CC3)C(=O)N3CCCC(N3)C(=O)OCC(C)(C)C2)C1
Result string: upper bin

Query string: Assign a category based on measured viability, T/C for CC(C)n1nc(-c2ccc3oc(N)nc3c2)c2c(N)ncnc21 + CCn1c(-c2cc(N3CCN(C)CC3)cnc2C(C)OC)c2c3cc(ccc31)-c1csc(n1)CC(NC(=O)C1CC1C)C(=O)N1CCCC(N1)C(=O)OCC(C)(C)C2 and give only the class name.
Result string: lower bin

Query string: Class for O=C(c1ccc(F)c(F)c1Nc1ccc(I)cc1F)N1CC(O)([C@@H]2CCCCN2)C1 + CCn1c(-c2cc(N3CCN(C)CC3)cnc2C(C)OC)c2c3cc(ccc31)-c1csc(n1)CC(NC(=O)C1CC1C)C(=O)N1CCCC(N1)C(=O)OCC(C)(C)C2 ?
Result string: lower bin

Query string: Hi, small favor: classify CCC(CC)c1cc(NC2CCC(N)C2)n2nccc2n1 (centres undefined) + CCn1c(-c2cccnc2C(C)OC)c2c3cc(ccc31)N1CCOC(CC(NC(=O)C(C(C)C)N(C)C(=O)C3(F)CCN(C(=O)C#CC(C)(C)N(C)C)CC3)C(=O)N3CCCC(N3)C(=O)OCC(C)(C)C2)C1 by its viability, T/C when you get a moment.
Result string: upper bin

Query string: Into which category would you place Nc1ccn(C2OC(CO)C(O)C2(F)F)c(=O)n1 (centres undefined) + CCn1c(-c2cc(N3CCN(C)CC3)cnc2C(C)OC)c2c3cc(ccc31)-c1csc(n1)CC(NC(=O)C1CC1C)C(=O)N1CCCC(N1)C(=O)OCC(C)(C)C2 ?
Result string: lower bin
